Target: T1, human melanocortin 4 receptor (human, UniProt P32245 1-332)
T1 construct: whole, on cells; cAMP assay on whole BHK cells; also called MC4R; human MC4 receptor
T1 sequence (P32245 whole entry): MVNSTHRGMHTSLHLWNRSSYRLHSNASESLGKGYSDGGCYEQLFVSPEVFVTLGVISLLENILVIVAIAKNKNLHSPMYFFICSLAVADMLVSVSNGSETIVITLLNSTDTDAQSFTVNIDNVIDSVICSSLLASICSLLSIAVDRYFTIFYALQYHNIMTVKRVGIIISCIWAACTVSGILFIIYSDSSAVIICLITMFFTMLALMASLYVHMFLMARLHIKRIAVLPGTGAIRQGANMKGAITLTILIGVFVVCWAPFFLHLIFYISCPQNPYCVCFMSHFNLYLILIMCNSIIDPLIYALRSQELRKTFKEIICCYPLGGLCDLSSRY
Assay: competition with 125-NDP-α-MSH, BHK human MC4R membranes
Positions of bridges follow the written chain, without caps; N, C: chain ends. Non-standard residues stand in square brackets, D forms with d.
assay_endpoint: Ki

[
  {
    "binder": "cyclo(CKH[dF]HWCAKKKW) (disulfide 1-7; SMILES C[C@@H]1NC(=O)[C@@H]2CSSC[C@H](NC(=O)[C@H](Cc3c[nH]c4ccccc34)NC(=O)[C@H](CCCCN)NC(=O)[C@H](CCCCN)NC(=O)[C@H](CCCCN)NC1=O)C(=O)N[C@@H](CCCCN)C(=O)N[C@@H](Cc1c[nH]cn1)C(=O)N[C@H](Cc1ccccc1)C(=O)N[C@@H](Cc1c[nH]cn1)C(=O)N[C@@H](Cc1c[nH]c3ccccc13)C(=O)N2, also called c[c[Cys-Lys-His-D-Phe-His-Trp-Cys]-Ala-Lys-Lys-Lys-Trp]) [Chem. 76]",
    "reported": "0.09 nM"
  },
  {
    "binder": "CXHFRWCXHFRW (βAla 2, 8; D-Phe 4, 10; disulphide Cys1-Cys7; head-to-tail amide Cys1-Trp12, also called c[c[Cys-βAla-His-D-Phe-Arg-Trp-Cys]-βAla-His-D-Phe-Arg-Trp]) [Chem. 25]",
    "reported": "0.04 nM"
  }
]
